Origin of values: paper PMC6338552

# SYSTEM NAME: His6-JNK2α1 (UniProt P45984-2 1-382)
# PROTOCOL TEXT: fluorescence polarisation
TMR = 6-carboxytetramethylrhodamine
ATTRIBUTE MEASURED: Kd (µM)
Reply with just the number (in µM).

### Prompt Look at this binder and give its reported Kd. {TMR}-RPKRPTTLNLF-OH [TMR-JIPtide]
### Response 15
